Hey, just so you know, these numbers are from patent US20030104507A1.

# Test system: ATPase activity endogenous to L929 cell lysate
# PROCEDURE DETAILS: Detergent inhibition of ATPase endogenous to L929 cell lysate (ATP remaining by luciferase luminescence, 22° C.)
# Format: biochemical
# CONDITION DETAILS: 1.0% detergent, 260 min

{"columns": ["COMPOUND", "Average Relative Light Unit Values / rlu"],
 "data": [
  ["C[C@H](CCC(=O)[O-])[C@H]1CC[C@H]2[C@@H]3CC[C@@H]4C[C@H](O)CC[C@]4(C)[C@H]3C[C@H](O)[C@]12C.[Na+] [Deoxycholate, sodium deoxycholate]", 3.24],
  ["C[C@H](CCC(=O)N(CCCNC(=O)[C@H](O)[C@@H](O)[C@H](O)[C@H](O)CO)CCCNC(=O)[C@H](O)[C@@H](O)[C@H](O)[C@H](O)CO)[C@H]1CC[C@H]2[C@@H]3[C@H](O)C[C@@H]4C[C@H](O)CC[C@]4(C)[C@H]3C[C@H](O)[C@]12C [BIGCHAP, N,N-bis(3-D-Gluconamidopropyl)cholamide]", 822.65],
  ["CCCCCCCCCCCCCCCC[N+](C)(C)C.[Br-] [CTAB, Cetyltrimethylammonium bromide]", 0.07],
  ["CCCCCCCCCCCC[N+](C)(C)CCCS(=O)(=O)[O-] [Sulfobetaine 3-10]", 2193.02],
  ["C[C@H](CCC(=O)NCCC[N+](C)(C)CCCS(=O)(=O)[O-])[C@H]1CC[C@H]2[C@@H]3[C@H](O)C[C@@H]4C[C@H](O)CC[C@]4(C)[C@H]3C[C@H](O)[C@]12C [CHAPS]", 809.22],
  ["CCCCCCCCCCCC[N+](C)(C)C.[Br-] [DTAB, dodecyltrimethylammonium bromide]", 645.40]
]}

----------
# Tested on: ATPase activity endogenous to L929 cell lysate
# PROCEDURE DETAILS: Detergent inhibition of ATPase endogenous to L929 cell lysate (ATP remaining by luciferase luminescence, 22° C.)
# Assay type: biochemical
# CONDITION DETAILS: 0.1% detergent, 222 min
ENDPOINT: Percent ATP Remaining (%)

{"columns": ["MOLECULE", "ENDPOINT", "READING"],
 "data": [
  ["C[C@H](CCC(=O)N(CCCNC(=O)[C@H](O)[C@@H](O)[C@H](O)[C@H](O)CO)CCCNC(=O)[C@H](O)[C@@H](O)[C@H](O)[C@H](O)CO)[C@H]1CC[C@H]2[C@@H]3[C@H](O)C[C@@H]4C[C@H](O)CC[C@]4(C)[C@H]3C[C@H](O)[C@]12C [BIGCHAP, N,N-bis(3-D-Gluconamidopropyl)cholamide]", "Percent ATP Remaining", 9.6],
  ["C[C@H](CCC(=O)NCCC[N+](C)(C)CCCS(=O)(=O)[O-])[C@H]1CC[C@H]2[C@@H]3[C@H](O)C[C@@H]4C[C@H](O)CC[C@]4(C)[C@H]3C[C@H](O)[C@]12C", "Percent ATP Remaining", 8.6]
]}

----------
# Tested on: ATPase activity endogenous to L929 cell lysate
# PROCEDURE DETAILS: Detergent inhibition of ATPase endogenous to L929 cell lysate (ATP remaining by luciferase luminescence, 22° C.)
# Type: biochemical
# CONDITION DETAILS: 0.5% detergent, 75 min
ENDPOINT: Average Relative Light Unit Values (rlu)

{"columns": ["COMPOUND", "ENDPOINT", "U", "READING"],
 "data": [
  ["CCCCCCCCCCCC[N+](C)(C)CCCS(=O)(=O)[O-] [Sulfobetaine 3-10]", "Average Relative Light Unit Values", "rlu", 2405.95],
  ["C[C@H](CCC(=O)NCCC[N+](C)(C)CC(O)CS(=O)(=O)[O-])[C@H]1CC[C@H]2[C@@H]3[C@H](O)C[C@@H]4C[C@H](O)CC[C@]4(C)[C@H]3C[C@H](O)[C@]12C (some centres unmarked) [CHAPSO]", "Average Relative Light Unit Values", "rlu", 4089.32],
  ["C[C@H](CCC(=O)NCCC[N+](C)(C)CCCS(=O)(=O)[O-])[C@H]1CC[C@H]2[C@@H]3[C@H](O)C[C@@H]4C[C@H](O)CC[C@]4(C)[C@H]3C[C@H](O)[C@]12C [CHAPS]", "Average Relative Light Unit Values", "rlu", 4048.24],
  ["CCCCCCCCCCCCCCCC[N+](C)(C)C.[Br-] [CTAB, Cetyltrimethylammonium bromide]", "Average Relative Light Unit Values", "rlu", 0.28],
  ["C[C@H](CCC(=O)[O-])[C@H]1CC[C@H]2[C@@H]3CC[C@@H]4C[C@H](O)CC[C@]4(C)[C@H]3C[C@H](O)[C@]12C.[Na+] [Deoxycholate, sodium deoxycholate]", "Average Relative Light Unit Values", "rlu", 2715.45],
  ["CCCCCCCCCCCC[N+](C)(C)Cc1ccccc1.[Br-] [BDDABr, Benzyldimethyldodecylammonium bromide]", "Average Relative Light Unit Values", "rlu", 107.39],
  ["CCCCCCCCCCCCOS(=O)(=O)[O-].[Na+] [SDS, Sodium dodecyl sulfate]", "Average Relative Light Unit Values", "rlu", 0.00],
  ["C[C@H](CCC(=O)N(CCCNC(=O)[C@H](O)[C@@H](O)[C@H](O)[C@H](O)CO)CCCNC(=O)[C@H](O)[C@@H](O)[C@H](O)[C@H](O)CO)[C@H]1CC[C@H]2[C@@H]3[C@H](O)C[C@@H]4C[C@H](O)CC[C@]4(C)[C@H]3C[C@H](O)[C@]12C [BIGCHAP, N,N-bis(3-D-Gluconamidopropyl)cholamide]", "Average Relative Light Unit Values", "rlu", 3618.22]
]}
